Numbers sourced from patent US10471118B2.

Assay: Biodistribution of N-retinylamides and retinylamine derivatives in liver and eye after oral gavage
Format: in vivo, mouse
Details: 3.5 μmol per mouse oral, 2 h and 16 h
endpoint_label: original drug detected in the eye

>>> measured("CC1=C(/C=C/C(C)=C/C=C/C(C)=C/CNC(=O)[C@@H](N)CC(C)C)C(C)(C)CCC1 [RL]")
"only detected at 2 h"
>>> measured("CC1=C(/C=C/C(C)=C/C=C/C(C)=C/CNC(=O)[C@@H](N)Cc2ccccc2)C(C)(C)CCC1 [RF]")
"only detected at 2 h"

###

Tested on: Abca4^−/−Rdh8^−/− mice
Assay: Light-induced retinal degeneration in Abca4-/-Rdh8-/- mice (OCT, ERG, histology), Example 1
Format: in vivo, mouse
Conditions: 0.875 μmol per mouse oral gavage 16 h before 10,000 lux 1 h; OCT after 3 days in dark
endpoint_label: protection against light-induced retinal degeneration (ONL thickness from OCT)

>>> measured("CC1=C(/C=C/C(C)=C/C=C/C(C)=C/CNC(=O)[C@@H](N)Cc2ccccc2)C(C)(C)CCC1 [RF]")
"low protecting effect"
>>> measured("CC1=C(/C=C/C(C)=C/C=C/C(C)=C/CNC(=O)[C@@H](N)CC(C)C)C(C)(C)CCC1 [RL]")
"low protecting effect"
